Property: Inhibition; scope: individual compounds
- Study system: recombinant SARS-CoV-2 M^pro (Severe acute respiratory syndrome coronavirus 2, UniProt P0DTD1)
- Construct: The virus enzyme, called 3CLpro or main protease (M^pro), is essential for viral replication; purchased Proteros
- Assay type: biochemical
- Conditions used: relative to concentration range 0.1–1 µM
Where a SMILES comes first, the peptide text is derived from it. The star is where a group is joined. Piv = CC(C)(C)C(=O)*
Record the result as number plus unit.

Compound	Measure name	Result
CC(=O)NCC(=O)NCC(=O)N[C@H](C(=O)N[C@@H](CC(C)C)C(=O)N[C@H](C(=O)N[C@@H](CCC(N)=O)C(=O)N1CCC[C@H]1C(=O)NCC(N)=O)C(C)C)C(C)C [Peptide 2] (Ac-GGVLVQPG-NH2)	Inhibition	27.1 ± 0.5%

Looking up CNC(=O)CNC(=O)[C@@H]1CCCN1C(=O)[C@H](CCC(N)=O)NC(=O)[C@@H](NC(=O)[C@H](CC(C)C)NC(=O)[C@@H](NC(=O)CNC(=O)CNC(=O)C(C)(C)C)C(C)C)C(C)C [Peptide 4] (Piv-GGVLVQPG-NHMe) , I found its Inhibition recorded as 26.2 ± 0.3%

* * *

- System: human cytomegalovirus (HCMV) strain Davis
- Test summary: microbe, parasite or virus in culture
- Conditions used: Human betaherpesvirus 5, HEL, read-out: Antiviral Activity (EC50) Davis Strain
Measure name: pEC50
The value called pEC50 is obtained by taking minus log10 of the concentration in mol/L.

Smiles repr	Study system	pEC50
Nc1ccn(C[C@@H](CO)OCP(=O)(O)O)c(=O)n1	human cytomegalovirus (HCMV) strain Davis	6.17

Looking up `Nc1nc(O)c2ncn(COC(CO)CO)c2n1` , I found its pEC50 recorded as 5.93

* * *

- Tested on: human embryonic lung (HEL) fibroblasts
- Test summary: Cytostatic activity, cell growth (CC50) in HEL cells
- Conditions used: read-out: Cytotoxicity Cell Growth (CC50); HEL cells, Table 3 (VZV tests)
Measure name: CC50

Looking up O=c1[nH]c(=O)n([C@H]2C[C@H](O)[C@@H](CO)O2)cc1/C=C/Br [Birivudine, reference compound] , I found its CC50 recorded as > 300 µM

* * *

- System: SARS-CoV-2 clinical strain UC-1074
- Test summary: microbe, parasite or virus in culture
- Conditions used: Severe acute respiratory syndrome coronavirus 2, UC1074, Vero, 120 h, read-out: Antiviral Activity (EC50) UC-1074
Measure name: pEC50
The value called pEC50 is obtained by taking minus log10 of the concentration in mol/L.

Looking up CCC(CC)COC(=O)[C@H](C)N[P@](=O)(OC[C@H]1O[C@@](C#N)(c2ccc3c(N)ncnn23)[C@H](O)[C@@H]1O)Oc1ccccc1 [Remdesivir, reference compound] , I found its pEC50 recorded as 6.05

* * *

- Tested on: human embryonic lung (HEL) fibroblasts
- Test summary: Cytotoxicity, cell morphology (MCC) in HEL cells
- Conditions used: Table 2 (HCMV tests)
Where a SMILES comes first, the peptide text is derived from it. The star is where a group is joined. Piv = CC(C)(C)C(=O)*
Measure name: Cytotoxicity Cell Morphology (MCC)

Below are worked cases with known answers.
Molecule	Measure name	Result
CNC(=O)[C@@H](NC(=O)[C@H](CC(C)C)NC(=O)[C@@H](NC(=O)CNC(C)=O)C(C)C)C(C)C [Peptide 6, Ac-GVLV-NHCH3] (Ac-GVLV-NHMe)	Cytotoxicity Cell Morphology (MCC)	≥20 µM
CNC(=O)CNC(=O)[C@@H]1CCCN1C(=O)[C@H](CCC(N)=O)NC(=O)[C@@H](NC(=O)[C@H](CC(C)C)NC(=O)[C@@H](NC(=O)CNC(=O)CNC(C)=O)C(C)C)C(C)C [Peptide 3] (Ac-GGVLVQPG-NHMe)	Cytotoxicity Cell Morphology (MCC)	≥20 µM
CNC(=O)CNC(=O)[C@@H]1CCCN1C(=O)[C@H](CCC(N)=O)NC(=O)[C@@H](NC(=O)[C@H](CC(C)C)NC(=O)[C@@H](NC(=O)CNC(=O)CNC(=O)C(C)(C)C)C(C)C)C(C)C [Peptide 4] (Piv-GGVLVQPG-NHMe)	Cytotoxicity Cell Morphology (MCC)	100 µM
Nc1nc(O)c2ncn(COC(CO)CO)c2n1	Cytotoxicity Cell Morphology (MCC)	≥394 µM
Nc1ccn(C[C@@H](CO)OCP(=O)(O)O)c(=O)n1	Cytotoxicity Cell Morphology (MCC)	≥317 µM
CC(=O)NCC(=O)NCC(=O)N[C@H](C(=O)N[C@@H](CC(C)C)C(=O)N[C@H](C(=O)N[C@@H](CCC(N)=O)C(=O)N1CCC[C@H]1C(=O)NCC(N)=O)C(C)C)C(C)C [Peptide 2] (Ac-GGVLVQPG-NH2)	Cytotoxicity Cell Morphology (MCC)	≥20 µM

Looking up CC(C)C[C@H](NC(=O)[C@@H](NC(=O)CNC(=O)CN)C(C)C)C(=O)N[C@H](C(=O)N[C@@H](CCC(N)=O)C(=O)N1CCC[C@H]1C(=O)NCC(=O)O)C(C)C [AT1001 (1), Larazotide acetate, reference compound] (H-GGVLVQPG-OH) , I found its Cytotoxicity Cell Morphology (MCC) recorded as ≥100 µM

Looking up CNC(=O)[C@H](CCC(N)=O)NC(=O)[C@@H](NC(=O)[C@H](CC(C)C)NC(=O)[C@@H](NC(=O)CNC(C)=O)C(C)C)C(C)C [Peptide 5, Ac-GVLVQ-NHCH3] (Ac-GVLVQ-NHMe) , I found its Cytotoxicity Cell Morphology (MCC) recorded as ≥100 µM
